- Test system: SK-OV-3 ovarian
- assayComment: NCI tumour cell line growth inhibition, 48 h
Decision: TGI compared against 70 µM; not below it gives criterion met, below it gives criterion not met.

Please review the following examples before continuing.
Data request: Is the recorded value of TGI equal to or greater than 70 µM for this compound? CN(C)c1nc2nonc2nc1Nc1ccccc1
Data returned: criterion met

Data request: Is the recorded value of TGI equal to or greater than 70 µM for this compound? Cc1cccc(/C=N/NC(=S)Nc2ccc(Cl)cc2)n1
Data returned: criterion not met

Data request: Is the recorded value of TGI equal to or greater than 70 µM for this compound? Cc1cc(=O)[nH]c(-n2[nH]c3c(c2=O)CCCC3)n1
Data returned: criterion met

Data request: Is the recorded value of TGI equal to or greater than 70 µM for this compound? COc1cc(C2CC(c3ccc(SC)cc3)=NN2C(C)=O)cc(OC)c1OC (stereo unspecified)
Data returned: criterion met

Next:
Data request: Is the recorded value of TGI equal to or greater than 70 µM for this compound? CCN(Cc1cc(F)cc(F)c1)c1ccc(CO)c(Cl)c1
Data returned: criterion not met

Data request: Is the recorded value of TGI equal to or greater than 70 µM for this compound? O=c1c(-c2ccccc2)c(SCCN2CCCC2)n(-c2ccccc2)c(=S)n1-c1ccccc1
Data returned: criterion met

Data request: Is the recorded value of TGI equal to or greater than 70 µM for this compound? O=C(O)Cc1cc(F)ccc1C(=O)O
Data returned: criterion met

Data request: Is the recorded value of TGI equal to or greater than 70 µM for this compound? Cn1c([N+](=O)[O-])cnc1/C=C1\Oc2ccc(Br)cc2C1=O
Data returned: criterion not met

Data request: Is the recorded value of TGI equal to or greater than 70 µM for this compound? O=c1[nH]cnc2c1ncn2C1CCC(CO)O1 (stereo unspecified)
Data returned: criterion met

Data request: Is the recorded value of TGI equal to or greater than 70 µM for this compound? CCOC(=O)c1c(NNc2ccccc2)nc2ccccc2c1-c1ccccc1
Data returned: criterion met

====

- System: T-47D breast
- assayComment: NCI tumour cell line growth inhibition, 48 h; in the data active = GI50 below about 0.43 µM; inactive = the rest
Output constraint: value belongs to active, inactive

Data request: GET /call?item= COc1cc(/C=C/c2cc(/C=C/c3ccc(O)c(OC)c3)n(C(=O)Cc3ccccc3)n2)ccc1O returns the recorded outcome of this test.
Data returned: inactive

Next:
Data request: GET /call?item= O=C1NC(=O)/C(=C/c2ccc3ncccc3c2)S1 returns the recorded outcome of this test.
Data returned: inactive

Data request: GET /call?item= Oc1ccc(OCCOc2ccc(O)cc2)cc1 returns the recorded outcome of this test.
Data returned: inactive

Data request: GET /call?item= COc1cc(Nc2cc(O)c3c(=O)cc(-c4ccccc4)oc3c2)cc(OC)c1 returns the recorded outcome of this test.
Data returned: active

Data request: GET /call?item= N#Cc1cc(-c2ccnc(Nc3ccc(NC(=O)CCl)cc3)n2)ccc1N1CCCC1 returns the recorded outcome of this test.
Data returned: inactive

Data request: GET /call?item= NCCCNc1nc2ccccc2c2c(=O)c3cccc(F)c3sc12 returns the recorded outcome of this test.
Data returned: inactive

====

- Tested on: OVCAR-5 ovarian
- assayComment: NCI tumour cell line growth inhibition, 48 h
Task for the reader: assign each of the following compounds its reported GI50.

A selection of reference data follows.
Data request: Requested field: GI50. Item: CCN(Cc1cc(F)cc(F)c1)c1ccc(CO)c(Cl)c1
Data returned: 0.0668 µM

Data request: Requested field: GI50. Item: COc1cc(Nc2ncc3c(C)nc(-c4cccc(C(F)(F)F)c4)n3n2)cc(OC)c1OC
Data returned: 3.65 µM

Data request: Requested field: GI50. Item: CCC(=O)OCC1OC(n2cnc3c(=S)nc(N)[nH]c32)C(OC(=O)CC)C1OC(=O)CC (stereo not drawn)
Data returned: 9.15 µM

Data request: Requested field: GI50. Item: COc1cc2c(Oc3ccc4[nH]c(C)cc4c3F)ncnc2cc1OCCCN1CCCC1
Data returned: 4.72 µM

Data request: Requested field: GI50. Item: COc1cc(C2CC(c3ccc(SC)cc3)=NN2C(C)=O)cc(OC)c1OC (stereo not drawn)
Data returned: 44.5 µM

For each entry beneath this line, provide reported GI50.
1. O=C(c1ccc(Oc2ccccc2)cc1Cl)c1c[nH]c2ncnc(N[C@@H]3CC[C@@H](CO)OC3)c12
2. CC(c1ccccc1)N1C(=O)CSC1=S (stereo not drawn)
3. O=C1C(=O)/C(=C/c2ccccc2)CCCCCC/C1=C/c1ccccc1
4. COc1cc(/C=C/c2cc(/C=C/c3ccc(O)c(OC)c3)n(C(=O)Cc3ccccc3)n2)ccc1O
5. COc1ccc(/C=C/C(=O)c2c(O)c(C)c(O)c3c2OC2=CC(O)=C(C(C)=O)C(=O)[C@]23C)cc1
6. COc1cc(C=C2c3ccccc3C(=O)c3ccccc32)ccc1OCCCCOc1cc2c(cc1OC)C(=O)N1CCCC1C=N2 (stereo not drawn)
7. CCOC(=O)c1cc(C(=O)c2cc(OC)cc(OC)c2)n2nc(C)ccc12

Data returned:
["0.255 µM", "4.05 µM", "2.68 µM", "2.77 µM", "4.2 µM", "0.581 µM", "2.7 µM"]

Data request: Requested field: GI50. Item: O=C1NC(=O)/C(=C/c2ccc3ncccc3c2)S1
Data returned: 8.3 µM

====

- Test system: COLO 205 colon
- assayComment: NCI tumour cell line growth inhibition, 48 h
Task for the reader: assign each of the following compounds its reported GI50.

A selection of reference data follows.
Data request: Requested field: GI50. Item: CN(c1ccc(C(=O)O)cc1)c1cc(O/N=[N+](\[O-])N(C)C)c([N+](=O)[O-])cc1[N+](=O)[O-]
Data returned: 8.78 µM

Data request: Requested field: GI50. Item: COc1cc(Nc2ncc3c(C)nc(-c4cccc(C(F)(F)F)c4)n3n2)cc(OC)c1OC
Data returned: 4.07 µM

Data request: Requested field: GI50. Item: CN(C)CCCNc1nc2ccccc2c2c(=O)c3cc(F)ccc3sc12
Data returned: 2.12 µM

Data request: Requested field: GI50. Item: CC(=O)c1ccc(Nc2cc(-n3nnc4ccccc43)nc3ccccc23)cc1
Data returned: 30.6 µM

Data request: Requested field: GI50. Item: O=C1NC(=O)/C(=C/c2ccc3ncccc3c2)S1
Data returned: > 25 µM

Data request: Requested field: GI50. Item: O=C(CCCBr)Nc1ccccc1C#C/C=C\C#Cc1ccccc1C(F)(F)F
Data returned: > 50 µM

Data request: Requested field: GI50. Item: Cc1ccc(N(CC(=O)Nc2ccc(S(=O)(=O)NC3CCN(C)CC3)cc2)S(=O)(=O)c2ccc(Cl)cc2)cc1
Data returned: 1.89 µM

Data request: Requested field: GI50. Item: C1C[OH+]CCNCC[OH+]CC[OH+]CCN1.O.[Cl-].[Pt+4]
Data returned: > 100 µM

For each entry beneath this line, provide reported GI50.
1. CO[C@H]1/C=C/[C@@](C)(O)/C=C/C(=O)O[C@H](C)[C@@H](C)CC/C=C/1C
2. CCCCc1ccc(NS(=O)(=O)c2cc3c4c(c2)CCN4C(=O)CC3)cc1
3. CCC(=O)OCC1OC(n2cnc3c(=S)nc(N)[nH]c32)C(OC(=O)CC)C1OC(=O)CC (stereo unspecified)

Data returned:
["20.6 µM", "25.1 µM", "3.57 µM"]

====

- Tested on: IGROV1 ovarian
- assayComment: NCI tumour cell line growth inhibition, 48 h
valueType: TGI

A selection of reference data follows.
Data request: Requested field: TGI. Item: CC[C@H]1CC(=O)c2c(cc3c(c2O)C(=O)c2ccccc2C3=O)[C@@]1(C#N)C(=O)OC(C)(C)C
Data returned: 7.11 µM

Data request: Requested field: TGI. Item: N#CC1(C#N)C(c2ccc(C3C(C#N)(C#N)C3(C#N)C#N)cc2)C1(C#N)C#N
Data returned: > 100 µM

For each entry beneath this line, provide reported TGI.
1. CC1COC(c2cn[nH]c2C(N)=O)C1O (stereo not given)
2. CN(c1ccc(C(=O)O)cc1)c1cc(O/N=[N+](\[O-])N(C)C)c([N+](=O)[O-])cc1[N+](=O)[O-]

Data returned:
1: > 100 µM; 2: 24.5 µM

====

- Tested on: SK-MEL-28 melanoma
- assayComment: NCI tumour cell line growth inhibition, 48 h
valueType: TGI

Data request: Requested field: TGI. Item: C=C1C(O)C2C(=C(CC(C)C)C13CC3)C(=O)C(C)(C)C2O (stereo unspecified)
Data returned: > 100 µM

For each entry beneath this line, provide reported TGI.
1. CCCCCCCCNC(=O)SCCCC
2. O=C1CC(=O)c2c(N3CCCC3)sc(N3CCCC3)c21
3. CCC(=O)OCC1OC(n2cnc3c(=S)nc(N)[nH]c32)C(OC(=O)CC)C1OC(=O)CC (stereo unspecified)
4. CN1N(c2ccccc2)C(=O)C2=NC=C(C(=O)c3ccccc3)C(=N)C21C (stereo unspecified)

Data returned:
["> 100 µM", "> 100 µM", "> 100 µM", "> 100 µM"]

Data request: Requested field: TGI. Item: Cn1c(C2CCCc3c2c2ccccc2n3C)cc2ccccc21 (stereo unspecified)
Data returned: > 318 µM
